Assay: Cytotoxicity against Spodoptera frugiperda (fall armyworm) Sf9 cells after 48 hr by MTT assay
Assay type: cell-based
Conditions: read-out: ED50
measured_endpoint: CC50 at 48 h (µg/mL)

{"columns": ["molecule", "result_units", "readout_value"],
 "data": [
  ["C[C@]1(/C=C/Cl)C[C@](Cl)(CBr)[C@@H](Cl)C[C@H]1Cl [VIOLACENE]", "µg/mL", 0.023],
  ["CC(Br)(CCl)[C@@H]1C[C@H](O)[C@](C)(/C(Cl)=C/Br)O1 (stereo partly drawn) [FUROPLOCAMIOID C]", "µg/mL", 0.03],
  ["Cl[C@H]1[C@H](Cl)[C@@H](Cl)[C@@H](Cl)[C@H](Cl)[C@H]1Cl [LINDANE]", "µg/mL", 0.001]
]}

---

Test system: Leptinotarsa decemlineata
Assay: Antifeedant activity against adult of Leptinotarsa decemlineata in […] by choice test
Format: functional, organism-based
This listing pairs molecules with measured log10 EC50.
measured_endpoint: log10 EC50 (log10 of the value in nmol/cm2)

{"columns": ["molecule", "log10 EC50"],
 "data": [
  ["CC(C)=CCC/C(C)=C/CC/C(C)=C/CO", 2.03],
  ["CC1=CCC(C(C)(C)Cl)OC1C(Br)Br (stereo not drawn)", 0.38],
  ["CC(=O)O[C@H]1C[C@H](C(C)(Br)CCl)O[C@@]1(C)/C(Cl)=C/Br (stereo partly drawn)", 1.23],
  ["CC(Br)(CCl)[C@H]1C[C@H](O)[C@](C)(/C(Cl)=C/Br)O1 (stereo partly drawn)", 1.28],
  ["C[C@@]1(Cl)C[C@@](C)(/C=C/Cl)[C@H](Cl)C[C@H]1Cl", 1.11],
  ["CC1=C[C@](C)(/C=C/Cl)C=CC1=O", 1.33],
  ["CC(Br)(CCl)[C@@H]1C[C@H](O)[C@](C)(/C(Cl)=C/Br)O1 (stereo partly drawn)", 1.28],
  ["Cc1ccc(C(C)C)c(O)c1", 0.56],
  ["C[C@]1(/C=C/Cl)C[C@@](C)(Cl)[C@H](Cl)C[C@H]1Cl", 1.48],
  ["Cl[C@H]1[C@H](Cl)[C@@H](Cl)[C@@H](Cl)[C@H](Cl)[C@H]1Cl", -1.00],
  ["C[C@]1(/C=C/Cl)C[C@](Cl)(CBr)[C@@H](Cl)C[C@H]1Cl", 2.15],
  ["C[C@]1(/C=C/Cl)C[C@@](C)(Cl)[C@H](Cl)C[C@@H]1Cl", 2.18],
  ["C=C(C)[C@@H]1[C@H]2OC(=O)[C@@H]1[C@]1(O)C[C@H]3O[C@]34C(=O)O[C@H]2[C@]14C", 1.44],
  ["C=C1C[C@](C)(/C=C/Cl)[C@H](Cl)C[C@H]1Cl", 1.11],
  ["CC1=CCC(C(C)(Cl)CCl)OC1C(Br)Br (stereo not drawn)", 0.92],
  ["CC(=O)OC(C/C=C(/C)C(Cl)C(Br)Br)C(C)(Br)CCl (stereo not drawn)", 1.85],
  ["C[C@]1(/C=C/Cl)C[C@](Cl)(CBr)[C@@H](Br)C[C@H]1Cl", 1.59]
]}
